biological target: Cyclin Dependent Kinase 1/Cyclin A2 (CDK1-cycA2) (Homo sapiens); construct: purchased ProQinase 0134-0054-1; experiment: CDK1-cycA2 TR-FRET (Lance) enzyme assay; format: biochemical; settings: Table O, enzymatic assay
Sequence (P06493 whole entry): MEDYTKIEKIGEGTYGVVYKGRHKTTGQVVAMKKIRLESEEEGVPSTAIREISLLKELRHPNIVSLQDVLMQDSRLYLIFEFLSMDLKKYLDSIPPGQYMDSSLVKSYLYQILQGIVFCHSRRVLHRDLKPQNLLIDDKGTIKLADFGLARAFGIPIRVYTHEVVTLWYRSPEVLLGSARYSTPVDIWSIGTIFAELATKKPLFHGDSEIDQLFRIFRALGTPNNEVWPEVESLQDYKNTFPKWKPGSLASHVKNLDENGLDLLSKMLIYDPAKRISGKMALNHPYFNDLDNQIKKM
Sequence (P20248 whole entry partner): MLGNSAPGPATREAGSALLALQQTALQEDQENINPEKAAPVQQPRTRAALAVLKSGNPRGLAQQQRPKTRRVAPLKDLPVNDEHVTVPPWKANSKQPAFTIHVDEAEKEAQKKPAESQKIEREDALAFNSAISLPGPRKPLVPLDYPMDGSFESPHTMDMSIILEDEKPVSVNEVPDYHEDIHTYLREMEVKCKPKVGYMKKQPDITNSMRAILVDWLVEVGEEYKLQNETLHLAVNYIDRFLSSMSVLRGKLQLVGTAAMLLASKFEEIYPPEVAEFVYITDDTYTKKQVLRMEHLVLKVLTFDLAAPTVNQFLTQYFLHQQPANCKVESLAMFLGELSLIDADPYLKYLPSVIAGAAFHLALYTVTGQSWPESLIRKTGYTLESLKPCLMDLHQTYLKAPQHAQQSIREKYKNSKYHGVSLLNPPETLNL
Endpoint Name: pKi
The read-out pKi is expressed as -log10 of concentration in moles per litre.

Here are 5 molecules together with their reported answers.
- CNC(=O)c1ccnc(Nc2cc([C@H]3CC[C@@H](OC(=O)NC(C)(C)C)C3)[nH]n2)c1 [Example 4F]: 7.28
- CN1CCC(NC(=O)O[C@@H]2CC[C@H](c3cc(Nc4cccnn4)n[nH]3)C2)CC1 [Example 3E]: 6.55
- CC(C)NC(=O)O[C@@H]1CC[C@H](c2cc(Nc3ccnc(C(F)(F)F)n3)n[nH]2)C1 [Example 2L]: 8.54
- CC(C)(C)NC(=O)O[C@@H]1CC[C@H](c2cc(Nc3ncccn3)n[nH]2)C1 [Example 4J]: 6.77
- Cn1cnc(Nc2cc([C@H]3CC[C@@H](OC(=O)NC45CC(C4)C5)C3)[nH]n2)cc1=O [Example 9B]: 7.92

Could you share what pKi was measured for Cn1cc(Nc2cc([C@H]3CC[C@@H](OC(=O)NC(C)(C)C)C3)[nH]n2)ccc1=O [Example 1] , tested on Cyclin Dependent Kinase 1/Cyclin A2 (CDK1-cycA2) (Homo sapiens)? 6.57

Could you share what pKi was measured for CC(C)(C)NC(=O)O[C@@H]1CC[C@H](c2cc(Nc3ccnnc3)n[nH]2)C1 [Example 4K] , tested on Cyclin Dependent Kinase 1/Cyclin A2 (CDK1-cycA2) (Homo sapiens)? 7.57

* * *

biological target: Cyclin Dependent Kinase 2/Cyclin E1 (CDK2-cycE1) (Homo sapiens); construct: purchased ProQinase 0050-0055-1; test: CDK2-cycE1 TR-FRET (LANCE) enzyme assay; format: biochemical; conditions: Table O, fold selectivity, enzymatic CDK1 Ki over CDK2 Ki
Decision: FS CDK1/CDK2 >= 40 yields TRUE, all other cases yield FALSE.

Reference set (7 entries):
* Cc1ccc(Nc2cc([C@H]3CC[C@@H](OC(=O)NC(C)(C)C)C3)[nH]n2)cn1 | FALSE
* CC1(NC(=O)O[C@@H]2CC[C@H](c3cc(Nc4cccnn4)n[nH]3)C2)CNC1 | FALSE
* CC(C)NC(=O)O[C@@H]1CC[C@H](c2cc(Nc3ccc(=O)n(C)n3)n[nH]2)C1 | FALSE
* O=C(NC1CCOCC1)O[C@@H]1CC[C@H](c2cc(Nc3cccnn3)n[nH]2)C1 | FALSE
* CNC(=O)c1ncc(Nc2cc([C@H]3CC[C@@H](OC(=O)NC45CC(C4)C5)C3)[nH]n2)c(C)n1 | FALSE
* O=C(NC12CC(C1)C2)O[C@@H]1CC[C@H](c2cc(Nc3ccnnc3C3CC3)n[nH]2)C1 | TRUE
* O=C(NC12CC(C1)C2)O[C@@H]1CC[C@H](c2cc(Nc3ccc(N4CCOCC4)nc3)n[nH]2)C1 | FALSE

Could you now look at the following compound, please?
Hello, I need to know if Cc1ncccc1Nc1cc([C@H]2CC[C@@H](OC(=O)NC(C)(C)C)C2)[nH]n1 has measured FS CDK1/CDK2 not below 40. Thanks! TRUE

* * *

Listing of recorded Ki by entry.
target: Cyclin Dependent Kinase 2/Cyclin E1 (CDK2-cycE1) (Homo sapiens, UniProt P24941); construct: purchased ProQinase 0050-0055-1; assay: CDK2-cycE1 TR-FRET (LANCE) enzyme assay; type: biochemical; conditions: Table S, enzymatic assay; read-out: CDK2 Ki
Reply numerically in nM, unit not repeated.

• CC(C)(C)NC(=O)O[C@@H]1CC[C@H](c2cc(Nc3ccnnc3)n[nH]2)C1 = 0.45
• Cc1cc(=O)n(C)nc1Nc1cc([C@H]2CC[C@@H](OC(=O)NC(C)(C)C)C2)[nH]n1 = 2.1

Which value of Ki has been reported for CC(C)(C)NC(=O)O[C@@H]1CC[C@H](c2cc(Nc3ccncc3)n[nH]2)C1 in the records? 2

Which value of Ki has been reported for CC(C)(C)NC(=O)O[C@@H]1CC[C@H](c2cc(Nc3ccccn3)n[nH]2)C1 in the records? 1.7

Which value of Ki has been reported for CC(C)(C)NC(=O)O[C@@H]1CC[C@H](c2cc(Nc3ccccc3)n[nH]2)C1 [Comparator E, reference compound] in the records? 0.52

Which value of Ki has been reported for CC(C)(C)NC(=O)O[C@@H]1CC[C@H](c2cc(Nc3ncccn3)n[nH]2)C1 in the records? 2.5

* * *

Listing of recorded Ki by entry.
target: Cyclin Dependent Kinase 2/Cyclin E1 (CDK2-cycE1) (Homo sapiens, UniProt P24941); construct: purchased ProQinase 0050-0055-1; experiment: CDK2-cycE1 TR-FRET (LANCE) enzyme assay; type: biochemical; conditions: Table S, enzymatic assay; read-out: CDK2 Ki
Reply numerically in nM, unit not repeated.

* CNC(=O)c1ccc(Nc2cc([C@H]3CC[C@@H](OC(=O)NC(C)(C)C)C3)[nH]n2)nc1 | 1.6
* CNC(=O)c1ccnc(Nc2cc([C@H]3CC[C@@H](OC(=O)NC(C)(C)C)C3)[nH]n2)c1 | 2.5
* Cc1ccc(Nc2cc([C@H]3CC[C@@H](OC(=O)NC(C)(C)C)C3)[nH]n2)cn1 | 0.52

Field: next molecule
Could you share what Ki was measured for Cc1ncccc1Nc1cc([C@H]2CC[C@@H](OC(=O)NC(C)(C)C)C2)[nH]n1 , tested on Cyclin Dependent Kinase 2/Cyclin E1 (CDK2-cycE1) (Homo sapiens, UniProt P24941)? 0.22

* * *

biological target: Cyclin Dependent Kinase 2/Cyclin E1 (CDK2-cycE1) (Homo sapiens, UniProt P24941); construct: purchased ProQinase 0050-0055-1; experiment: CDK2-cycE1 TR-FRET (LANCE) enzyme assay; format: biochemical; details: Table O, fold selectivity, enzymatic CDK1 Ki over CDK2 Ki
Decision: FS CDK1/CDK2 >= 30 yields t, all other cases yield f.

Reference set (5 entries):
• CC(C)NC(=O)O[C@@H]1CC[C@H](c2cc(Nc3ccnc(C(F)(F)F)n3)n[nH]2)C1 = f
• Cc1ncncc1Nc1cc([C@H]2CC[C@@H](OC(=O)NC(C)C)C2)[nH]n1 = t
• CC(C)NC(=O)O[C@@H]1CC[C@H](c2cc(Nc3ncnc(N(C)C)n3)n[nH]2)C1 = f
• CC(CC(F)(F)F)NC(=O)O[C@@H]1CC[C@H](c2cc(Nc3ccc(=O)n(C)n3)n[nH]2)C1 (some centres unmarked) = f
• CNc1ncc(Nc2cc([C@H]3CC[C@@H](OC(=O)NC(C)C)C3)[nH]n2)cn1 = f

Hello, I need to know if CNC(=O)c1cnc(Nc2cc([C@H]3CC[C@@H](OC(=O)NC45CC(C4)C5)C3)[nH]n2)c(C)n1 has measured FS CDK1/CDK2 not below 30. Thanks! t

* * *

Biological target: Cyclin Dependent Kinase 1/Cyclin A2 (CDK1-cycA2) (Homo sapiens)
Construct: purchased ProQinase 0134-0054-1
Assay: CDK1-cycA2 TR-FRET (Lance) enzyme assay
Assay type: biochemical
Conditions: Table R, fold selectivity, enzymatic Ki ratio
Method: Cyclin Dependent Kinase 1/Cyclin A2 (CDK1-cycA2), Cyclin Dependent Kinase 2/Cyclin E1 (CDK2-cycE1), Cyclin Dependent Kinase 4/Cyclin D3 (CDK4-cycD3) and Cyclin Dependent Kinase 6/Cyclin D3 (CDK6-cycD3) enzyme assays were carried out as described below. […] An Echo acoustic dispenser is used to create dose responses of compound dissolved in DMSO into a 384-well microplate. […] Signal is a ratio of the Acceptor and Donor fluorescence. Inhibition constants are calculated via the Morrison equation.
I'd appreciate it if you marked entries yes (1) when FS CDK1/CDK2 is lower than 50 and no (0) when it is not.

* Cn1cc(Nc2cc([C@H]3CC[C@@H](OC(=O)NC(C)(C)C)C3)[nH]n2)ccc1=O | yes (1)

Dear colleague, could you confirm whether FS CDK1/CDK2 of Cc1ncccc1Nc1cc([C@H]2CC[C@@H](OC(=O)NC(C)(C)C)C2)[nH]n1 falls below 50? Thanks. no (0)

Dear colleague, could you confirm whether FS CDK1/CDK2 of CNC(=O)c1ccc(Nc2cc([C@H]3CC[C@@H](OC(=O)NC(C)(C)C)C3)[nH]n2)nc1 falls below 50? Thanks. yes (1)

Dear colleague, could you confirm whether FS CDK1/CDK2 of CNC(=O)c1ccnc(Nc2cc([C@H]3CC[C@@H](OC(=O)NC(C)(C)C)C3)[nH]n2)c1 falls below 50? Thanks. yes (1)

Dear colleague, could you confirm whether FS CDK1/CDK2 of CC(C)(C)NC(=O)O[C@@H]1CC[C@H](c2cc(Nc3ncccn3)n[nH]2)C1 falls below 50? Thanks. no (0)

Dear colleague, could you confirm whether FS CDK1/CDK2 of Cc1cc(=O)n(C)nc1Nc1cc([C@H]2CC[C@@H](OC(=O)NC(C)(C)C)C2)[nH]n1 falls below 50? Thanks. yes (1)

Dear colleague, could you confirm whether FS CDK1/CDK2 of CC(C)(C)NC(=O)O[C@@H]1CC[C@H](c2cc(Nc3cccnn3)n[nH]2)C1 falls below 50? Thanks. yes (1)

Dear colleague, could you confirm whether FS CDK1/CDK2 of Cc1ccncc1Nc1cc([C@H]2CC[C@@H](OC(=O)NC(C)(C)C)C2)[nH]n1 falls below 50? Thanks. no (0)

Dear colleague, could you confirm whether FS CDK1/CDK2 of Cc1cc(Nc2cc([C@H]3CC[C@@H](OC(=O)NC(C)(C)C)C3)[nH]n2)nn(C)c1=O falls below 50? Thanks. no (0)

Dear colleague, could you confirm whether FS CDK1/CDK2 of CC(C)NC(=O)O[C@@H]1CC[C@H](c2cc(Nc3cccnc3)n[nH]2)C1 falls below 50? Thanks. yes (1)

Dear colleague, could you confirm whether FS CDK1/CDK2 of CC(C)(C)NC(=O)O[C@@H]1CC[C@H](c2cc(Nc3ccc4c(n3)CCC4)n[nH]2)C1 [Comparator D, reference compound] falls below 50? Thanks. yes (1)

Dear colleague, could you confirm whether FS CDK1/CDK2 of CC(C)(C)NC(=O)O[C@@H]1CC[C@H](c2cc(Nc3ccncc3)n[nH]2)C1 falls below 50? Thanks. no (0)

Dear colleague, could you confirm whether FS CDK1/CDK2 of CC(C)(C)NC(=O)O[C@@H]1CC[C@H](c2cc(Nc3ccccn3)n[nH]2)C1 falls below 50? Thanks. yes (1)

Dear colleague, could you confirm whether FS CDK1/CDK2 of CC(C)(C)NC(=O)O[C@@H]1CC[C@H](c2cc(Nc3ccnnc3)n[nH]2)C1 falls below 50? Thanks. no (0)

Dear colleague, could you confirm whether FS CDK1/CDK2 of Cc1ccc(Nc2cc([C@H]3CC[C@@H](OC(=O)NC(C)(C)C)C3)[nH]n2)cn1 falls below 50? Thanks. yes (1)
